Data provenance: patent US20210353626A1

Each entry below carries its recorded inhibition at 30 µM.
Target entity: β2AR (Homo sapiens, UniProt P07550)
Construct: host or cells: HEK293 cells stably expressing (EA)-β-arrestin-2
Sequence (P07550 whole entry): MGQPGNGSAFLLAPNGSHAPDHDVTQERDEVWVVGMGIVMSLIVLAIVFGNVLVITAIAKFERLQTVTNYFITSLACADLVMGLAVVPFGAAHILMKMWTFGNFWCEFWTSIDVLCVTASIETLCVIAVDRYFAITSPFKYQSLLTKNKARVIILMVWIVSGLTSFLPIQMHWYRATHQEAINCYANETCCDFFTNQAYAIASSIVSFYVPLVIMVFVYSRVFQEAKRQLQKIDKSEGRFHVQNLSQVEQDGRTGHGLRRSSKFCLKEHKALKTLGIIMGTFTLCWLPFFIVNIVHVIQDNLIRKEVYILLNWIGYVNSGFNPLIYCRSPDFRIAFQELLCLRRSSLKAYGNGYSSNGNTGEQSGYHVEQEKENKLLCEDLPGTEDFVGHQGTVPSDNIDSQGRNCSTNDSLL
Assay protocol: β-arrestin-2 recruitment assay (PathHunter enzyme fragment complementation), norepinephrine-stimulated
Format: cell-based
Condition: arrestin recruitment stimulated by norepinephrine after preincubation with 30 μM of the test compound; read-out: attenuation of Emax (maximum efficacy of norepinephrine)

Lab note: Nc1nc(Nc2ccccc2)nc2ccc(C(F)(F)F)cc12 gave inhibition at 30 µM of 71 to 100%

Others:
Briefly, inhibition at 30 µM measured for COC(=O)c1ccc(Nc2nc(N)c3c(Cl)cccc3n2)cc1 : < 30%

Documented inhibition at 30 µM of Nc1nc(Nc2ccccc2)nc2cccc(Br)c12 : 31 to 70%

# compound Nc1nc(Nc2ccccc2)nc2ccc(-c3ccccc3)cc12 ; its inhibition at 30 µM = 31 to 70%

According to the records, this compound Nc1nc(Nc2ccc(S(N)(=O)=O)cc2)nc2ccccc12 displays inhibition at 30 µM of < 30%
